// values below are reported SPOT peptide array binding signal intensity
molecular target: CaBbc1; test: SPOT peptide array binding signal intensity (averaged, normalized) (arbitrary units (background-subtracted, floor 0; scale differs between SH3 domains)); higher = stronger binding of the SH3 domain to the peptide
Enter the number alone.

These recorded examples may help you get a feel for the data.
Binder: QRIRKIPGIPLMSVG
Obs value: 226

Binder: RKRAPTPPAPSRSEK
Obs value: 426

Let us examine a further case.
Q. Provide only the value of recorded SPOT peptide array binding signal intensity for NHSRSLFSLPGNQQS
A. 111
